- method.notes: yeast display, Sf9 membrane polyspecificity reagent, FACS + sequencing; frameworks hold sequencing errors
experimental.endpoint: polyreactivity (PSR sort gate)

// known answers, use as guide
>  <polymer.sequence>
QVQLVESGGGLVQAGGSLRLSCAASGSTFGANAKGWYRQAPGKARALVAAITWSGGSTYYADSVKGRFTISRDNAKNTVFLQMNSLKPEDTAVSYCNAVARWYVLQVYEYDYWGQGTQVTVSS

>  <reported.measurement>
low polyreactivity

$$$$
>  <polymer.sequence>
QVQLVESGGGLVQAGGSLRLSCAASGSTFRFNTMGWYRQAPGKERELVAAITRGGSTNYADSVKGRFTISRDNAKNTVYLQMNSLKPEDTAVYYCNTTRYSVRKYDYWGQGTQVTVSS

>  <reported.measurement>
low polyreactivity

$$$$
>  <polymer.sequence>
QVQLQESGGVQAGGSLRLSCAASGYISRSDVMGWYRQAPGKERELVATINNGTITYYADSVKGRFTISRDNAKNTVYLQMNSLIPEDTAVHYCAVVQSDTDSLYYWGQGTQVTVSS

>  <reported.measurement>
low polyreactivity

$$$$
>  <polymer.sequence>
QVQLVESGGGLVQAGGSLRLSCAASGRTFSYNAIGWYRLAPGKERELVARISSGGSTNYADSVKGRFTISRDNAKNTVYLQMNSLKPEDTAVYYCNAVYRTYEYYWGQGTQVTVSS

>  <reported.measurement>
high polyreactivity

$$$$
>  <polymer.sequence>
QVQLVESGGGLVQAGGSLRLSCAASGRIFDLNAMGWYRPAPGKERELVAAITNTGSTNYADSVKGRFTISRDNAKNTVYLQMNSLKPEDTAVYYCARTYWLRYYGYRDDEYDYWGQGTQVTVSS

>  <reported.measurement>
low polyreactivity

$$$$

# input sequence: QVQLVESGGGLVQAGGSLRLSCAASGFTFPEYDMGWYRQAPGKERELVAAINYSDGRTFYADSVKGRFTISRDNAKNTVYLQMNSLKPEDTAVYYCATDLSYDVWFFGPDYDYWGQGTQVTVSS ; wanted: its polyreactivity (PSR sort gate)
low polyreactivity

# input sequence: QVQLVESGGGLVQAGGSLRLSCAASGRTFTPYDMGWYRQAPGKERELVAAITWRGGSTYYADSVKGRFTISRDNAKNTVYLQMNSLKPEDTAVYYCAKDRWTYAFRVGYGYWGQGTQVTVSS ; wanted: its polyreactivity (PSR sort gate)
high polyreactivity

# input sequence: QVQLVESGGGLVQAGGSLRLSCAASGFTFSYNAMGWYRQAPGKERELVAAISSGGRTYYADSVKGRFTISRDNAKNTVYLQINSLKPEDTAVYYCNAEPDQYTLRSITNDEDYWGQGTQVTVSS ; wanted: its polyreactivity (PSR sort gate)
low polyreactivity

---

- method.notes: yeast display, Sf9 membrane polyspecificity reagent, FACS + sequencing; frameworks hold sequencing errors
experimental.endpoint: polyreactivity (PSR sort gate)

// known answers, use as guide
>  <polymer.sequence>
QVQLVESVGGLVQAGGSLRLSCAASRIFRGYAMGRYRQAPGKERELVAAIRRGGSTNYADSVKGRFTISRDNAKNSVYFQMNSLKPEDTEVYYCAADFYYDRDVDYWGQGTQVTVSS

>  <polyreactivity (PSR sort gate)>
high polyreactivity

$$$$
>  <polymer.sequence>
QVQLVESGGGLVQAGGSIRLSCAASGFTFDAYAMGWYRQAPGKESELVAAITTSGGNTNYADSVKGRFTISRDNAKNTVYLQMNSLKPEDTAVYYCASDAAVEYGKISYDYWGQGTQVTVSS

>  <polyreactivity (PSR sort gate)>
low polyreactivity

$$$$
>  <polymer.sequence>
QVQLVESGGGLVQAGGSLRLSCAASGSTYGYAMGWYRQAPGKERELVAAISSSGGRTYYADSVKGRFTISRDNAKNTVYLQMNSLKPEDTAVYYCAAGGFSQHGHGYWGQGTQVTVSS

>  <polyreactivity (PSR sort gate)>
high polyreactivity

$$$$
>  <polymer.sequence>
QVQLVESGGGLVQAGGSLRLSCAASGSTFPRYAMGWYRQAPGKERELVAAITYSGGRTYYADSVKGRFTISRDNAKNTVYLQMNSLKPEDTAVYYCAARYGPYRFNPMGYWGQGTQVTVSS

>  <polyreactivity (PSR sort gate)>
high polyreactivity

$$$$

Consider the record given below.
# input sequence: QVQLVESGGGLVQAGGSLRLSCAASGRTFFPYAMGWYRQAPGKERELVAAITRGGSTNYADSVKGRFTISRDNAKNTVYLQINSLKPEDTAVSYCATVVRYSNARGDYWGQGTQVTVSS ; wanted: its polyreactivity (PSR sort gate)
low polyreactivity
